Target: HLA-B*15:17
Test: IEDB peptide-MHC binding, purified MHC/competitive/fluorescence; filed as Kd, often an IC50 or EC50 that approximates it; bounds were set here for any values at or beyond the usual limits of such assays
Settings: source organism: Influenza A virus H3N2
Value type: Kd

Give reported Kd for ITKEKKEEL (HLA-B*15:17)
≥ 20 µM

###

Biological target: HLA-B*07:02
Assay: IEDB peptide-MHC binding, purified MHC/competitive/fluorescence; filed as Kd, often an IC50 or EC50 that approximates it; bounds were set here for any values at or beyond the usual limits of such assays
Conditions: source organism: Shigella flexneri 5 str. 8401
Value type: Kd (nM)
The reply should contain only the number, in nM.

Complete the entry with Kd for TPAQLSMLL
215

###

Reported Kd values follow for various sequences
Molecular target: HLA-A*01:01
Assay: IEDB peptide-MHC binding, purified MHC/competitive/radioactivity; filed as Kd, often an IC50 or EC50 that approximates it; bounds were set here for any values at or beyond the usual limits of such assays
Conditions: source organism: Lymphocytic choriomeningitis virus (strain Armstrong)
Number plus unit, in that order.

{"Sequence record": "KCWLVTNGSY", "System under test": "HLA-A*01:01", "Kd": "17.3 µM"}

The record that follows has no Kd shown yet.
Complete the entry with Kd for LIFRGPNVV
10.8 µM

###

Biological target: HLA-B*35:01
Experiment: IEDB peptide-MHC binding, purified MHC/competitive/fluorescence; filed as Kd, often an IC50 or EC50 that approximates it; bounds were set here for any values at or beyond the usual limits of such assays
Conditions: source organism: Mycolicibacterium gilvum PYR-GCK
Value type: pKd
// pKd: -log10(molar conc.)

Give reported pKd for ALYLLDGLR (HLA-B*35:01)
5.92

###

Molecular target: HLA-B*07:02
Assay: IEDB peptide-MHC binding, purified MHC/direct/fluorescence; filed as Kd, often an IC50 or EC50 that approximates it; bounds were set here for any values at or beyond the usual limits of such assays
Settings: source organism: Vibrio cholerae
Value type: pKd
// pKd: -log10(molar conc.)

Complete the entry with pKd for YLKKGRLSL
6.91

###

Molecular target: HLA-A*31:01
Assay: IEDB peptide-MHC binding, purified MHC/direct/fluorescence; filed as Kd, often an IC50 or EC50 that approximates it; bounds were set here for any values at or beyond the usual limits of such assays
Conditions: source organism: Influenza A virus (A/Wisconsin/4755/1994(H1N1))
Value type: Kd

Give reported Kd for ITKEKKEEL (HLA-A*31:01)
≥ 20 µM

###

Target: HLA-A*26:01
Assay: IEDB peptide-MHC binding, purified MHC/competitive/radioactivity; filed as Kd, often an IC50 or EC50 that approximates it; bounds were set here for any values at or beyond the usual limits of such assays
Details: source organism: Dengue virus 4 Philippines/H241/1956
Reported Kd values follow for various sequences
The reply should contain only the number, in µM.

{"Sequence record": "ETAWDFGSVG", "Value observed": 0.138}

The record that follows has no Kd shown yet.
Give reported Kd for HLAIMAVFKM (HLA-A*26:01)
9.58

###

Biological target: HLA-B*39:01
Assay: IEDB peptide-MHC binding, purified MHC/direct/fluorescence; filed as Kd, often an IC50 or EC50 that approximates it; bounds were set here for any values at or beyond the usual limits of such assays
Settings: source organism: Influenza A virus(A/swine/Shandong/fNY/2003(H9N2))
Value type: Kd

Complete the entry with Kd for ITKEKKEEL
≥ 20 µM
